Reported clearance values for a set of compounds
- procedure_details: Pharmacokinetic Evaluation in Rats
- Type: in vivo
- condition_notes: rat, intravenous; male SD rats; administered orally or intravenously; 0.5 mg/mL dosing solution; plasma up to 8 hours; read-out: CLtot (total clearance) (converted)
Your answer should be a plain number; it is taken to be in mL/min/kg.

Example compounds with recorded clearance:
given_smiles: CC(C)N(c1ccc(/C=C/C[C@H](NC(=O)c2c(Cl)cccc2Cl)C(=O)O)cc1)c1ncccn1
output_unit: mL/min/kg
clearance: 18.1

given_smiles: COC1(c2ccc(/C=C/C[C@H](NC(=O)c3c(Cl)cccc3Cl)C(=O)O)cc2)CCOCC1
output_unit: mL/min/kg
clearance: 16

given_smiles: CN(c1ccc(/C=C/C[C@H](NC(=O)c2c(Cl)cccc2Cl)C(=O)O)cc1)c1ncccn1
output_unit: mL/min/kg
clearance: 15.1

given_smiles: CN(c1ccc(/C=C/C[C@H](NC(=O)c2c(Cl)cccc2Cl)C(=O)[O-])cc1)c1ncccn1.[Na+]
output_unit: mL/min/kg
clearance: 16.1

given_smiles: COC1(c2ccc(/C=C/C[C@H](NC(=O)c3c(Cl)cccc3Cl)C(=O)[O-])cc2)CCOCC1.[Na+]
output_unit: mL/min/kg
clearance: 16.6

Exercise: Any idea what clearance was measured for CC(C)N(c1ccc(/C=C/C[C@H](NC(=O)c2c(Cl)cccc2Cl)C(=O)[O-])cc1)c1ncccn1.[Na+] ?
Solution: 19.6
